Cited source: PubChem BioAssay (NCI)

# Tested on: SN12C renal
# test.name: NCI tumour cell line growth inhibition, 48 h
Quick reference for TGI among some compounds
All answers are understood in µM, so give the number only.

>  <structure.smiles>
O=C(CCCN1CCC2(CC1)C(=NC1CCCCC1)NC(=O)N2c1ccccc1)c1ccc(F)cc1

>  <experimental.target>
SN12C renal

>  <unit.of.measurement>
µM

>  <TGI>
40.7

$$$$

For the compound COC1=C(Br)C(=O)c2nc(C)ccc2C1=O , give its measured TGI value. 29.1

###

Quick reference for TGI among some compounds
# Test system: HCT-15 colon
# test.name: NCI tumour cell line growth inhibition, 48 h

Reference set (5 entries):
>  <compound>
NC(=O)c1ncn2c1NC(=O)CC2

>  <TGI>
> 100 µM

$$$$
>  <compound>
C/C(CCn1[nH]c(=O)ccc1=O)=N\OCCCc1ccccc1

>  <TGI>
> 100 µM

$$$$
>  <compound>
NC(=S)N/N=C/c1cc(-c2cccc(N)c2)ccn1

>  <TGI>
> 100 µM

$$$$
>  <compound>
Oc1ccc(Br)cc1C=Nc1ccc(N=Cc2cc(Br)ccc2O)cc1

>  <TGI>
> 100 µM

$$$$
>  <compound>
Cc1cc(/N=C/c2ccc(C#N)cc2)n(-c2ccccc2)n1

>  <TGI>
> 100 µM

$$$$

Now for another entry.
Please indicate recorded TGI of CCOc1ccccc1NC(=O)C(C#N)C1=C(Cl)C(=O)c2ccccc2C1=O (stereo unspecified) measured with HCT-15 colon. 2.94 µM
